Task for the reader: assign each of the following binders its reported TF-1 proliferation IC50.
- target-under-test: T1, IL-6R on human myeloma U266B1 cells (human, UniProt P08887 20-468)
- T1 sequence (looked up): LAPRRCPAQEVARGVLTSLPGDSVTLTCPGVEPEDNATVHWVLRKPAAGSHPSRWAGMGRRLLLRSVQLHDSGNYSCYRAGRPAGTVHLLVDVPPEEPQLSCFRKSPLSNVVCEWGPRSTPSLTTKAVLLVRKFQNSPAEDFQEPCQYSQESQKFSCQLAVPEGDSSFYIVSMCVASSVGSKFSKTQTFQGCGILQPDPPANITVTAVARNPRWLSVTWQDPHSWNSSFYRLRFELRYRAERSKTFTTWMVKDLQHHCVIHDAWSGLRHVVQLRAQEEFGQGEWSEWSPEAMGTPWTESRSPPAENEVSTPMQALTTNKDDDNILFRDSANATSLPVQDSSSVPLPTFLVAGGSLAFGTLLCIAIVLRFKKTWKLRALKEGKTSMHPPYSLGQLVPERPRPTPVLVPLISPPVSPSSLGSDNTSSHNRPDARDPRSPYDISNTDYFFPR
- method: cell-based or functional assay
Return type: number; implicit unit µg/mL.

Determine from records and report TF-1 proliferation IC50 for clone 40 rabbit anti-IL-6R antibody (antibody, V domains shown) VH: QSLEESGGRLVSPGGSLTLTCTVSGVDLNTYAMGWVRQAPGKGLECIGVILGSGTTYYANWAKGRFTISKTSSTTVDLKMTNLTAADTATYFCAGDRYGSLEEVITPYFDLWGPGILVTVSS VL: DVVMTQTPASVEAAVGGTVTIKCQASQNIYNNLAWYQQKPAQPPKLLIYSASTLESGVPSRFKGSGSGTGYTLTISDLECADAATYYCQSAYYTSYIDHNVFGGGTEVVVE
0.02

Determine from records and report TF-1 proliferation IC50 for clone 37 rabbit anti-IL-6R antibody (antibody, V domains shown) VH: QSLEESGGRLVTPGTPLTLTCTVSGIDLSRYWMSWVRQAPGKGLEWIGMISGGNTWYASWAKGRFTISGTSTTVDLKIISPTTADTATYFCARGIDTGIATTFNLWGPGTLVTVSS VL: AQVLTQTPSSVSAAVGGTVTISCQSSQSVYSNNRLSWFQQKPGQPPKLLIYYTSTLASGVPSRFKGSGSGTQFTLTISDLECDDAATYYCQGYYSGVINVFGGGTEVVVK
0.09

Determine from records and report TF-1 proliferation IC50 for clone 42 rabbit anti-IL-6R antibody (antibody, V domains shown) VH: QSVEESGGRLVTPGTPLTLTCTVSGFSLSNYWMSWVRQAPGKGLEWIAFIGGGNTFYASWAKGRFTISKTSSTTVDLSMPSPTTEDTATYFCARGYGAPGYDLWGQGTLVTVSL VL: AIVMTQTPSSKSVPVGDTVTINCQASESVYTNNRLSWYQQKPGQPPKLLIYYASTLASGVPSRFKGSGSGTQFTLTISDVVCDNAATYYCVGYKSSDGDGTAFGGGTEVVVK
0.03

Determine from records and report TF-1 proliferation IC50 for clone 36 rabbit anti-IL-6R antibody (antibody, V domains shown) VH: QSVEESGGRLVTPGTPLTLTCTVSGFSLSSYYMSWVRQAPGKGLEWIGITTTSTNTFYASWAKGRFTISKTSATVDLKITSPTIEDTATYFCARYGGNSAYYAFSLWGQGTLVTVSS VL: QVLTQTASSVSAAVGGTVTISCQSSQSVYNNNYLAWFQQKPGQPPKLLIYGASNLASGVPSRFKGSGSGTQFTLTISDLECDNAATYYCQGYYNGVIFVFGGGTEVVVK
0.04

Determine from records and report TF-1 proliferation IC50 for clone 23 rabbit anti-IL-6R antibody (antibody, V domains shown) VH: QSLEESGGRLVTPGTPLTLTCTVSGIDLSRYWMSWVRQAPGKGLEWIGMISGGNTWYASWAKGRFTISKTSTTVDLKITSPTTEDTATYFCARGIDTGIATTFNLWGPGTLVTVSS VL: AQVLTQTPSSVSTAVGGTVTISCQSSQNVYNNNRLSWFQQKPGQPPKLLIYYTSTLPSGVPSRFKGSGSGTQFTLTISDLECDDAATYYCQGYYSGVINVFGGGTEVVVK
0.07

Determine from records and report TF-1 proliferation IC50 for clone 51 rabbit anti-IL-6R antibody (antibody, V domains shown) VH: QSVEESGGRLVTPGTPLTLTCTASGFDISSYSLQWVRQSPGKGLEYIGFIRPDGSAHYATWAKGRFTISKTSSTTVDLKMTSLTTEDTATYFCARDDISSDYFPNLWGPGTLVTVSS VL: QVLTQTPSPVSAAVGGTVTISCQASESVYNKNNLAWYQQKPGQPPKLLIYDASDLASGVSSRFKGSGSGTQFTLTISDLECADAATYYCAGGGSGNVYDFGGGTEVVVK
0.02

Determine from records and report TF-1 proliferation IC50 for clone 5 rabbit anti-IL-6R antibody (antibody, V domains shown) VH: QSLEESGGRLVTPGTPLTLTCTVSGIDLSRYWMSWVRQAPGKGLEWIGMISGGNTWYASWAKGRFTISKTSTTVDLKITSPTTEDTATYFCARGIDTGIATTFNLWGPGTLVTVSS VL: AQVLTQTPSSVSAAVGGTVTISCQSSQSVYNNNRLSWFQQKPGQPPKLLIYYASTLASGVPSRFKGSGSGTQFTLTISDLECDDAATYYCQGYYSGVINVFGGGTEVVVK
0.03

Determine from records and report TF-1 proliferation IC50 for clone 21 rabbit anti-IL-6R antibody (antibody, V domains shown) VH: QSVEESGGRLVTPGTPLTLTCTVSGIDLSNYYMSWVRQAPGKGLEWIGISSTTSNTFYASWAKGRFTISKTSATVDLKITSPTTEDTATYFCARYGGNSAYYAFSLWGQGTLVTVSS VL: AVVLTQTPSPVSAAVGGTVTINCQSSQSVYNNNYLAWYQQKPGQPPKLLIYGASNLASGVPSRFKGSGSGTQFTLTISEVQCDDAATYYCQGYYNGVIFVFGGGTEVVVK
0.11
